tested on: Cell line HT-29 derived from colon tumor; assay: Growth inhibition against colon tumor cell line (MTT method); format: cell-based; conditions: 1 mM, 72 hours, control 0.337 ± 0.055
# cell number by MTT method (optical density) listing for each entry below
attribute measured: cell number by MTT method (optical density)

>  <compound>
C[C@H](O)CC(=O)O [S-β-hydroxy-butyric acid, S(+)-β-hydroxybutyric acid]

>  <endpoint result>
0.281

$$$$
>  <compound>
C[C@H](CC(=O)O)OC(=O)C[C@@H](C)O [R-dimer, dimer of R(−)-β-hydroxybutyric acid]

>  <endpoint result>
0.248

$$$$
>  <compound>
CCCC(=O)O [butyric acid, reference compound]

>  <endpoint result>
0.250

$$$$
>  <compound>
C[C@@H](O)CC(=O)O [R-β-hydroxy-butyric acid, R(−)-β-hydroxy-butyric acid]

>  <endpoint result>
0.272

$$$$
